The values you see were collected from the Bradley open melting point set (2014).

melting point overview
Numeric answer only, unit °C assumed.

                                   molecule       quantity  number
0  Cc1ccc(C(C)C)cc1 [1-Isopropyl-4-methylbenzene]  melting point     -68

Quick one: melting point for CNC=O [N-methylformamide] ?
-4

Cool, now BrCc1nc2ccccc2s1
48

Cool, now CC(=O)/C(C)=N\O [(3Z)-3-(Hydroxyimino)butan-2-one]
75

Cool, now Oc1ccc(OCc2ccccc2)cc1
120

Cool, now Nc1ccc(C(=O)O)cc1 [4-aminobenzoic acid]
188

---

# note: exactly 100 °C is not below, so it is false (0); use true (1) for melting point strictly under it

                                   compound        cat
0  O=Cc1c(-c2ccccc2)nc2n1CCS2 [2,3-dihydro-6-phenylimidazo[2,1-b]thiazole-5-carboxaldehyde]  false (0)
1       c1cc2c3c(cccc3c1)CC2 [acenaphthene]   true (1)
2              O=C(O)COc1ccccc1[N+](=O)[O-]  false (0)
3                     Oc1ccc(Cl)cc1-c1ccno1  false (0)
4                   CC(C)N [isopropylamine]   true (1)
5      CC(=O)Oc1cccc(C)c1 [m-tolyl_acetate]   true (1)
6  CC(=O)Nc1ccc(O)cc1 [N-(4-Hydroxyphenyl)acetamide]  false (0)
7                          O=C(CCl)c1ccccc1   true (1)

Bench note: check whether O=C1OC(=O)C2C1C1(Cl)C(Cl)=C(Cl)C2(Cl)C1(Cl)Cl (stereo not given) [chlorendic anhydride] shows melting point below 100 °C
false (0)

Cool, now OCCc1ccc(O)cc1 [2-(4-hydroxyphenyl)ethanol]
true (1)

Cool, now CCOC(=O)C(C#N)=Cc1ccc(Cl)cc1 [Ethyl 3-(4-chlorophenyl)-2-cyanoacrylate]
false (0)

Cool, now O=Cc1ccccc1O
true (1)

Cool, now O=c1c2ccccc2sc2ccccc12
false (0)

Cool, now CCN1CCOCC1 [4-ethylmorpholine]
true (1)

---

Returns one of TRUE or FALSE; TRUE when melting point is >= 60 °C.

The examples below pair each entry with its known result.
>>> print(df.to_string())
                                   compound    cat
0  OC1CC2=C(CC=CC2)CC1O (stereo not given) [1,2,3,4,5,8-hexahydronaphthalene-2,3-diol]   TRUE
1    OC[C@@H](O)[C@H](O)[C@H](O)[C@@H](O)CO   TRUE
2  C/C(=C\C=C\c1ccccc1)C(=O)OC(=O)/C(C)=C/C=C/c1ccccc1 [(2E,4E)-2-methyl-5-phenylpenta-2,4-dienoic anhydride]   TRUE
3               c1c[nH]nn1 [1,2,3-triazole]  FALSE

Given COC(=O)c1sc(Br)c(Br)c1O [methyl 4,5-dibromo-3-hydroxythiophene-2-carboxylate] , state whether its melting point is at least 60 °C.
TRUE

Cool, now Cc1cccc2ccccc12
FALSE

Cool, now CCOC(=O)c1[nH]c(C)c(C(C)=O)c1C [3-acetyl-2,4-dimethyl-5-(ethoxycarbonyl)pyrrole]
TRUE

Cool, now C#C[C@]5(O)CC[C@H]4[C@H]3[C@@H]([C@@]2(/C(=C\c1oncc1C2)CC3)C)CC[C@@]45C
TRUE

Cool, now Cc1cccc(Cl)c1Cl
FALSE

Cool, now O=C(O)CCc1ccccc1
FALSE

Cool, now CC1=CC(=O)C=C(C)C1=O
TRUE

Cool, now C=C
FALSE

Cool, now CCCBr
FALSE

Cool, now [O-][Cl+3]([O-])([O-])O
FALSE

Cool, now CCOC(=O)n1ccn(C)c1=S [ethyl 3-methyl-2-thionoimidazoline-1-carboxylate]
TRUE

Cool, now OB(O)c1cnc(OCc2ccccc2)nc1OCc1ccccc1
TRUE

Cool, now NC(=O)c1ccccc1Cc1ccccc1 [o-benzylbenzamide]
TRUE

Cool, now O=[N+]([O-])/C=C/c1c(Cl)cccc1Cl
TRUE

Cool, now CCOC=O [ethyl_formate]
FALSE

Cool, now O=C1c3c(N(\C=C1\C(=O)O)CC)cc2OCOc2c3
TRUE
